Origin of measurements: the supplement of paper PMC10567573

The following variants are listed with their measured protein stability index values.
B1: CCNC (parent)
chain: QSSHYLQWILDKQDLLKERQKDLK

Variants of: B1
Method Notes: protein stability index of a GFP-peptide fusion (GPS, HEK-293T) (PSI 1-6); higher = more stable;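 note: lentivirally expressed fusions sorted by FACS into six bins by GFP to DsRed ratio, PSI derived from sequencing read proportions per bin multiplied by bin number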
Study Conditions: c terminus: a fixed tail appended
The answer should be a number; do not append a unit.

Q1H | 2.04
L15D | 3.47
W8S | 4.09

The variant listed as "L6V" shows protein stability index equal to 3.7

The variant listed as "Y5L" shows protein stability index equal to 2.02

The variant listed as "I9V" shows protein stability index equal to 3.09

The variant listed as "L15H" shows protein stability index equal to 3.72

The variant listed as "L10W" shows protein stability index equal to 2.54

The variant listed as "Q20R" shows protein stability index equal to 3.5

The variant listed as "L16F" shows protein stability index equal to 3.23

The variant listed as "Q1Y" shows protein stability index equal to 2.53

The variant listed as "K12V" shows protein stability index equal to 2.34

The variant listed as "L23S" shows protein stability index equal to 3.54
